Tested on: MT4
protocol.text: Antiviral activity against HIV1 3b in human MT4 cells
Format: functional, cell-based
measurement.name: pEC50
Lab note — pEC50 values are minus log10 of concentrations in M.

Look over these answered cases.
O=C(O)c1cn(CCO)c2ccc(Cc3cccc(Cl)c3F)cc2c1=O ... 7.12
COc1cc2c(cc1Cc1cccc(Cl)c1F)c(=O)c(C(=O)O)cn2[C@H](CO)C(C)C ... 9.05
CC(C)[C@@H](CO)n1cc(C(=O)O)c(=O)c2cc(Cc3cccc(Cl)c3F)ccc21 ... 8.12
COc1cc2c(cc1Cc1cccc(Cl)c1F)c(=O)c(C(=O)O)cn2CCO ... 7.77
O=C(O)c1c[nH]c2ccc(Cc3cccc(Cl)c3F)cc2c1=O ... 6.09

API: the following record is the query input.
Given item O=C(NCc1ccc(F)cc1)c1nc(N2CCCCS2(=O)=O)c2cccnc2c1O , the value recorded as its pEC50 is 8.44

----------
This listing pairs molecules with measured Activity.
System: MT4
protocol.text: Cytotoxic activity against human MT4 cells infected with HIV1 by MTT assay
Type: functional
Your answer is read as µM, so omit the unit and give the number.

Look over these answered cases.
COc1cc2c(cc1Cc1cccc(Cl)c1F)c(=O)c(C(=O)O)cn2[C@H](CO)C(C)C ... 4
CC(C)[C@@H](CO)n1cc(C(=O)O)c(=O)c2cc(Cc3cccc(Cl)c3F)ccc21 ... 14
O=C(NCc1ccc(F)cc1)c1nc(N2CCCCS2(=O)=O)c2cccnc2c1O ... 0.7

API: the following record is the query input.
Given item COc1cc2c(cc1Cc1cccc(Cl)c1F)c(=O)c(C(=O)O)cn2CCO , the value recorded as its Activity is 5.3

----------
target: UniProt Q7ZJM1
Sequence (Q7ZJM1 whole entry): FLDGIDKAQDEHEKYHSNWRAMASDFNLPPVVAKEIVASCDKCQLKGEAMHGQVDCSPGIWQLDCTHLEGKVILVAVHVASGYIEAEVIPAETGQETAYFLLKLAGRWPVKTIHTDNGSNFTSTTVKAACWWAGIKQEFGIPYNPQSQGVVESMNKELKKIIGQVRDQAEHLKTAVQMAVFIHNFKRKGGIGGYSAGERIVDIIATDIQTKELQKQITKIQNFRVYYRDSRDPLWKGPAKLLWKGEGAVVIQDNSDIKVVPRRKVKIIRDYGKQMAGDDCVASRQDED
protocol.text: Inhibition of recombinant HIV1 integrase strand transfer activity
measurement.name: IC50 (nM)
Your answer is read as nM, so omit the unit and give the number.

COc1cc2c(cc1Cc1cccc(Cl)c1F)c(=O)c(C(=O)O)cn2CCO ... 9.1
O=C(O)c1cnc2ccc(Cc3ccccc3)cc2c1O ... 1600

Given item O=C(O)c1c[nH]c2ccc(Cc3cccc(Cl)c3F)cc2c1=O , the value recorded as its IC50 is 43.5

Given item O=C(O)c1cn(CCO)c2ccc(Cc3cccc(Cl)c3F)cc2c1=O , the value recorded as its IC50 is 24.2

Given item O=C(NCc1ccc(F)cc1)c1nc(N2CCCCS2(=O)=O)c2cccnc2c1O , the value recorded as its IC50 is 22.8

----------
This listing pairs molecules with measured Activity.
Tested on: MT4
protocol.text: Cytotoxic activity against human MT4 cells infected with HIV1 by MTT assay
Format: functional

Look over these answered cases.
O=C(O)c1c[nH]c2ccc(Cc3cccc(Cl)c3F)cc2c1=O ... >12 µM
O=C(O)c1cnc2ccc(Cc3ccccc3)cc2c1O ... >30 µM

Given item O=C(O)c1cn(CCO)c2ccc(Cc3cccc(Cl)c3F)cc2c1=O , the value recorded as its Activity is >15 µM
